Origin of the recorded values: ChEMBL document CHEMBL1126246

Molecular target: Calpain-1 catalytic subunit (Homo sapiens)
Sequence (P07384 whole entry): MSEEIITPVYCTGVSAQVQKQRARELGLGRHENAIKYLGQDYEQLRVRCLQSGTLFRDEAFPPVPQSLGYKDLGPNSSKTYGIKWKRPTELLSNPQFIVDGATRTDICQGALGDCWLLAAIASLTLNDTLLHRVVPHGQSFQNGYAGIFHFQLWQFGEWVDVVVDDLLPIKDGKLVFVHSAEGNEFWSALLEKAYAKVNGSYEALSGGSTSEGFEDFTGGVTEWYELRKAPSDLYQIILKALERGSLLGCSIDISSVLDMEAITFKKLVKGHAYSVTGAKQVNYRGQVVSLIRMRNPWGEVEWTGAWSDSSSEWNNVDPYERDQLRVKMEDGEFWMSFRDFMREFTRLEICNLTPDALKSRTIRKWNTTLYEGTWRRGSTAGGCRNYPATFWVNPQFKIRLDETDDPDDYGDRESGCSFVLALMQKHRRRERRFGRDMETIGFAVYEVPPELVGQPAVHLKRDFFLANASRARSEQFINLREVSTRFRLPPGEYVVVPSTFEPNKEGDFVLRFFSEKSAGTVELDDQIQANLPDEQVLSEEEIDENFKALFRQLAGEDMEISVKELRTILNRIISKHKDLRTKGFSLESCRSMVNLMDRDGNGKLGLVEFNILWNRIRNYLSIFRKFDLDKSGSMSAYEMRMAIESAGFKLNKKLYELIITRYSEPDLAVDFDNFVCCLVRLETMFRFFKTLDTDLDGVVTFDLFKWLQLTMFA
Test: The ability of compound to inhibit calpain in a preparation of lysed platelets was measured with a caseinolytic assay(assay 1)
Conditions: read-out: I50
QUANTITY MEASURED: IC50 (nM)

Past entries and their recorded results:
- MOLECULE: "CC(C)CCNC(=O)[C@H](CC(C)C)NC(=O)[C@H]1O[C@@H]1C(=O)NCCc1c[nH]c2ccc(O)cc12"
  IC50, nM: 6000
- MOLECULE: "CC(C)CCNC(=O)[C@H](CC(C)C)NC(=O)[C@H]1O[C@@H]1C(=O)Oc1ccc2[nH]cc(CCNC(=O)OC(C)(C)C)c2c1"
  IC50, nM: 2000
- MOLECULE: "CC(C)CCNC(=O)[C@H](CC(C)C)NC(=O)[C@H]1O[C@@H]1C(=O)OCCBr"
  IC50, nM: 1000
- MOLECULE: "CC(C)CCNC(=O)[C@H](CC(C)C)NC(=O)[C@H]1O[C@@H]1C(=O)O [E-64C]"
  IC50, nM: 40
- MOLECULE: "CCCCC(COC(=O)[C@H]1O[C@@H]1C(=O)N[C@@H](CC(C)C)C(=O)NCCC(C)C)NC(=O)[C@H](CC(C)C)NC(=O)OCc1ccccc1 (some centres undefined)"
  IC50, nM: 100000

I: CC(C)CCNC(=O)[C@H](CC(C)C)NC(=O)[C@H]1O[C@@H]1C(=O)OCCCl
II: CC(C)CCNC(=O)[C@H](CC(C)C)NC(=O)[C@H]1O[C@@H]1C(=O)OCCF
III: CCOC(=O)[C@H]1O[C@@H]1C(=O)N[C@@H](CC(C)C)C(=O)NCCC(C)C [ALOXISTATIN]
Sort these molecules on IC50 so the largest reading comes first. # format: label list in the order the request specifies
III, I, II
(III: 4000 nM, I: 2000 nM, II: 500 nM)
